Attribute: pIC50
biological target: PCSK9 (Homo sapiens); experiment: PCSK9/EGF(A) TR-FRET binding assay; details: TR-FRET; Table 8D, disulfide-cyclized extension peptides; read-out: PCSK9/EGF(A) IC50
Sequence (Q8NBP7 153-692): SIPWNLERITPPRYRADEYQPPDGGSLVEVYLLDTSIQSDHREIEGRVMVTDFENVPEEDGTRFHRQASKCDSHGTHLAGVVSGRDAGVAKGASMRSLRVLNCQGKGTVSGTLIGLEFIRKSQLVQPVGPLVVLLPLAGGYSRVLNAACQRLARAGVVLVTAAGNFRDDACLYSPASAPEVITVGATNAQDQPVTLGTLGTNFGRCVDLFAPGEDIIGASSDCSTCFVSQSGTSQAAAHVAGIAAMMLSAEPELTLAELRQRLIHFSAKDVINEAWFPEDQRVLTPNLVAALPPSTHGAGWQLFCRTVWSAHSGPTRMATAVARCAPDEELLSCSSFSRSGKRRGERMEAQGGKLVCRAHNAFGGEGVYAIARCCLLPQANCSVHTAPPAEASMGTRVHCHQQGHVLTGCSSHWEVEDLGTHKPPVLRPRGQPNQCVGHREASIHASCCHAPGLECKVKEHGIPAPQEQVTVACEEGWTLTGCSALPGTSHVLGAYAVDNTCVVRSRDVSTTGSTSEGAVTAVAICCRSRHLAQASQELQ
Sequence (Q8NBP7 31-152 partner limits assumed): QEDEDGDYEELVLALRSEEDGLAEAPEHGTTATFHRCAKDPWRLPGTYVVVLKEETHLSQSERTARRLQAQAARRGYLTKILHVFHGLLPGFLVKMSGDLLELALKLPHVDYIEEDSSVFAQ
pIC50: −log10 of the molar value. Bridge positions count the residues as written; N and C are the ends. Square brackets hold non-standard residues; d marks the D form. Peptide text beside a SMILES is read from it. Cit = NC(=O)NCCC[C@H](N)C(=O)O

{"columns": ["Compound", "pIC50"],
 "data": [
  ["CC[C@H](C)[C@@H]1NC(=O)[C@H](CCCNC(N)=O)NC(=O)[C@H](CCC(N)=O)NC(=O)[C@H](CC(C)C)NC(=O)[C@H](CC(N)=O)NC(=O)[C@H](Cc2c[nH]c3ccccc23)NC(=O)[C@@H]2CCCN2C(=O)[C@H]([C@@H](C)CC)NC(=O)[C@H](Cc2ccccc2)NC(=O)[C@@H](NC(=O)CNC(=O)[C@H](CO)NC(C)=O)CSSC[C@@H](C(N)=O)NC(=O)[C@@H]2CCCN2C(=O)[C@H](CC(C)C)NC(=O)CNC1=O [Compound 36] (Ac-SGCFIPWNLQ[Cit]IGLPC-NH2; disulfide 3-16)", "< 4.30"]
]}

Measured pIC50 of CC[C@H](C)[C@@H]1NC(=O)[C@H](CCCNC(=N)N)NC(=O)[C@H](CCCCN)NC(=O)[C@H](CC(C)C)NC(=O)[C@H](CC(N)=O)NC(=O)[C@H](Cc2c[nH]c3ccccc23)NC(=O)[C@@H](NC(C)=O)CSSC[C@@H](C(=O)N[C@@H](Cc2c[nH]c3ccccc23)C(N)=O)NC(=O)CNC(=O)[C@H](CCC(N)=O)NC(=O)[C@H](CO)NC(=O)CNC1=O [Compound 39] (Ac-CWNLKRIGSQGCW-NH2; disulfide 1-12) : < 4.30

====

Attribute: pIC50
biological target: PCSK9Δhelix (Homo sapiens, UniProt Q8NBP7); construct: Human PCSK9 construct M1-Q692 with an engineered TEV site (residue deletion Y166, R167); made in house; host or cells: CHO; assay: PCSK9Δhelix/Ab20 TR-FRET binding assay; details: TR-FRET; Table 8E, additional compounds; read-out: PCSK9Δhelix/Ab20 IC50
Sequence (Q8NBP7 with tags, fused parts or gaps limits assumed): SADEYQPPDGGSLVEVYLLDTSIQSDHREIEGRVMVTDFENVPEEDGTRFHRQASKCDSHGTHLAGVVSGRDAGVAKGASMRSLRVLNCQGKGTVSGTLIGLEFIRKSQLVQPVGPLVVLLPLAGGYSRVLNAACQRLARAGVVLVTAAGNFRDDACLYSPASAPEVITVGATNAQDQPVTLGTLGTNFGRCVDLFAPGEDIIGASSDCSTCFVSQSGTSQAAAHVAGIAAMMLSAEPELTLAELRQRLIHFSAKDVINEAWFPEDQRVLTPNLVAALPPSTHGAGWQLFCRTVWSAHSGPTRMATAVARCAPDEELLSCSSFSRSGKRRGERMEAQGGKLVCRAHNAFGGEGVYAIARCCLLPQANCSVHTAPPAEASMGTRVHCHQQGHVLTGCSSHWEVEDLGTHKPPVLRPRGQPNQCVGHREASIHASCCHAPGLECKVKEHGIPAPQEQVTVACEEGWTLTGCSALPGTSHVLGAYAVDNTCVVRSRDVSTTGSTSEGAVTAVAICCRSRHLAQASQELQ
Sequence (Q8NBP7 31-152 partner limits assumed): as the sequence (Q8NBP7 31-152 partner limits assumed) above
Square brackets hold non-standard residues; d marks the D form. Peptide text beside a SMILES is read from it. * marks the point of attachment. Trp(6-Cl) = N[C@@H](Cc1c[nH]c2cc(Cl)ccc12)C(=O)O; hArg = N=C(N)NCCCC[C@H](N)C(=O)O; X25 = COc1cc(CCC(=O)*)ccc1O; X15 = COc1cccc(CCC(=O)*)c1; Pentanoyl = CCCCC(=O)*
// returns pIC50 (minus log10 of molar concentration), number only

{"columns": ["Molecule", "Measured On", "Reported Measurement"],
 "data": [
  ["CC[C@H](C)[C@H](NC(=O)[C@H](CCCCNC(=N)N)NC(=O)[C@@H](NC(=O)[C@H](CC(C)C)NC(=O)[C@H](CC(N)=O)NC(=O)[C@H](Cc1c[nH]c2ccccc12)NC(=O)CCc1cccc(OC)c1)C(C)C)C(=O)NCC(=O)N[C@@H](CC(C)C)C(=O)N[C@@H](CC(C)C)C(=O)N[C@@H](CCCNC(=N)N)C(N)=O [Compound 202] (X15-WNLV[hArg]IGLLR-NH2)", "PCSK9Δhelix (Homo sapiens, UniProt Q8NBP7)", 6.47],
  ["CCCCC(=O)N[C@@H](Cc1c[nH]c2cc(Cl)ccc12)C(=O)N[C@@H](CC(N)=O)C(=O)N[C@@H](CC(C)C)C(=O)N[C@H](C(=O)N[C@@H](CCCNC(=N)N)C(=O)N[C@H](C(=O)NCC(=O)N[C@@H](CC(C)C)C(=O)N[C@H](C(=O)N[C@@H](CCCNC(=N)N)C(N)=O)[C@@H](C)O)[C@@H](C)CC)C(C)C [Compound 186] (Pentanoyl-[Trp(6-Cl)]NLVRIGLTR-NH2)", "PCSK9Δhelix (Homo sapiens, UniProt Q8NBP7)", 4.96]
]}

Turning now to a further record.
Measured pIC50 of CC[C@H](C)[C@H](NC(=O)[C@H](CCCCNC(=N)N)NC(=O)[C@@H](NC(=O)[C@H](CC(C)C)NC(=O)[C@H](CC(N)=O)NC(=O)[C@H](Cc1c[nH]c2ccccc12)NC(=O)CCc1ccc(O)c(OC)c1)C(C)C)C(=O)NCC(=O)N[C@@H](CC(C)C)C(=O)N[C@@H](CC(C)C)C(=O)N[C@@H](CCCNC(=N)N)C(N)=O [Compound 213] (X25-WNLV[hArg]IGLLR-NH2) : 6.70

====

molecular target: PCSK9Δhelix (Homo sapiens, UniProt Q8NBP7); construct: Human PCSK9 construct M1-Q692 with an engineered TEV site (residue deletion Y166, R167); made in house; host or cells: CHO; test: PCSK9Δhelix/Ab20 TR-FRET binding assay; conditions: TR-FRET; Table 8E, additional compounds; read-out: PCSK9Δhelix/Ab20 IC50
pIC50: −log10 of the molar value. Numbered stars: 1 amine (or outer) side, 2 acyl side, 3 side chain; on linkers, the order of the positions; unused ones are H or OH. Square brackets hold non-standard residues; d marks the D form. Peptide text beside a SMILES is read from it. * marks the point of attachment. hArg = N=C(N)NCCCC[C@H](N)C(=O)O; X28 = COc1cc(OCCCC(=O)*)ccc1CO; Suc = O=C(CCC(=O)[*:2])[*:1]; X25 = COc1cc(CCC(=O)*)ccc1O; X35 = Nc1ccc(CCC(=O)*)cn1; Morpholide = C1CN(*)CCO1; Butyryl = CCCC(=O)*
Short version: pIC50 at least 5 is t, less is f.

Below, 4 molecules whose answers are already recorded.
{"columns": ["Molecule", "Measured On", "Label Value"],
 "data": [
  ["CC[C@H](C)[C@H](NC(=O)[C@H](CCCCNC(=N)N)NC(=O)[C@@H](NC(=O)[C@H](CC(C)C)NC(=O)[C@H](CC(N)=O)NC(=O)[C@H](Cc1c[nH]c2ccccc12)NC(=O)CCc1ccc(O)c(OC)c1)C(C)C)C(=O)NCC(=O)N[C@@H](CC(C)C)C(=O)N[C@@H](CC(C)C)C(=O)N[C@@H](CC(N)=O)C(N)=O [Compound 238] (X25-WNLV[hArg]IGLLN-NH2)", "PCSK9Δhelix (Homo sapiens, UniProt Q8NBP7)", "t"],
  ["CC[C@H](C)[C@H](NC(=O)[C@H](CCCCNC(=N)N)NC(=O)[C@@H](NC(=O)[C@H](CC(C)C)NC(=O)[C@H](CC(N)=O)NC(=O)[C@H](Cc1c[nH]c2ccccc12)NC(=O)CCc1ccc(N)nc1)C(C)C)C(=O)NCC(=O)N[C@@H](CC(C)C)C(=O)N[C@@H](CC(C)C)C(=O)N[C@@H](CCCNC(=N)N)C(N)=O [Compound 216] (X35-WNLV[hArg]IGLLR-NH2)", "PCSK9Δhelix (Homo sapiens, UniProt Q8NBP7)", "t"],
  ["CC[C@H](C)[C@H](NC(=O)[C@H](CCCNC(=N)N)NC(=O)[C@@H](NC(=O)[C@H](CC(C)C)NC(=O)[C@H](CC(N)=O)NC(=O)[C@H](Cc1c[nH]c2ccccc12)NC(=O)CCC(=O)N1CCOCC1)C(C)C)C(=O)NCC(=O)N[C@@H](CC(C)C)C(=O)N[C@H](C(=O)N[C@@H](CCCNC(=N)N)C(N)=O)[C@@H](C)O [Compound 167] ({Morpholide-Suc}-WNLVRIGLTR-NH2)", "PCSK9Δhelix (Homo sapiens, UniProt Q8NBP7)", "f"],
  ["CC[C@H](C)[C@H](NC(=O)[C@H](CCCCNC(=N)N)NC(=O)[C@@H](NC(=O)[C@H](CC(C)C)NC(=O)[C@H](CC(N)=O)NC(=O)[C@H](Cc1c[nH]c2ccccc12)NC(=O)CCCOc1ccc(CO)c(OC)c1)C(C)C)C(=O)NCC(=O)N[C@@H](CC(C)C)C(=O)N[C@@H](CC(C)C)C(=O)N[C@@H](CCCNC(=N)N)C(N)=O [Compound 204] (X28-WNLV[hArg]IGLLR-NH2)", "PCSK9Δhelix (Homo sapiens, UniProt Q8NBP7)", "t"]
]}

Reported pIC50 at or above 5? CCCC(=O)N[C@@H](Cc1c[nH]c2ccccc12)C(=O)N[C@@H](CC(N)=O)C(=O)N[C@@H](CC(C)C)C(=O)N[C@H](C(=O)N[C@@H](CCCNC(=N)N)C(=O)N[C@H](C(=O)NCC(=O)N[C@@H](CC(C)C)C(=O)N[C@@H](CC(C)C)C(=O)N[C@@H](CCCNC(=N)N)C(N)=O)[C@@H](C)CC)C(C)C [Compound 123] (Butyryl-WNLVRIGLLR-NH2)
f
